Tested on: IL-1α-induced PGE2 release
Assay: IL-1α-induced PGE2 release in human diploid lung fibroblasts (WI-38) (Assay 5)
Assay type: cell-based
Conditions: Homo sapiens; 3 μM; WI-38 cells, IL-1α 1 nM, overnight
OBSERVABLE: inhibition at 3 µM (%)
Give bare numbers, in %.

COC(=O)c1ccc(C(=O)CC(=O)CCc2ccc(O)c(OC)c2)cc1
58
COc1cc(CCC(=O)CC(=O)C(c2ccccc2)c2ccccc2)ccc1O
46

inhibition at 3 µM lookup needed for CCC(C(=O)CCc1ccc(O)c(OC)c1)C(=O)c1ccccc1 (stereo not drawn) , thanks. 69

###

Molecular target: TRPV1 receptor (Rattus norvegicus, UniProt O35433)
Sequence (O35433 whole entry): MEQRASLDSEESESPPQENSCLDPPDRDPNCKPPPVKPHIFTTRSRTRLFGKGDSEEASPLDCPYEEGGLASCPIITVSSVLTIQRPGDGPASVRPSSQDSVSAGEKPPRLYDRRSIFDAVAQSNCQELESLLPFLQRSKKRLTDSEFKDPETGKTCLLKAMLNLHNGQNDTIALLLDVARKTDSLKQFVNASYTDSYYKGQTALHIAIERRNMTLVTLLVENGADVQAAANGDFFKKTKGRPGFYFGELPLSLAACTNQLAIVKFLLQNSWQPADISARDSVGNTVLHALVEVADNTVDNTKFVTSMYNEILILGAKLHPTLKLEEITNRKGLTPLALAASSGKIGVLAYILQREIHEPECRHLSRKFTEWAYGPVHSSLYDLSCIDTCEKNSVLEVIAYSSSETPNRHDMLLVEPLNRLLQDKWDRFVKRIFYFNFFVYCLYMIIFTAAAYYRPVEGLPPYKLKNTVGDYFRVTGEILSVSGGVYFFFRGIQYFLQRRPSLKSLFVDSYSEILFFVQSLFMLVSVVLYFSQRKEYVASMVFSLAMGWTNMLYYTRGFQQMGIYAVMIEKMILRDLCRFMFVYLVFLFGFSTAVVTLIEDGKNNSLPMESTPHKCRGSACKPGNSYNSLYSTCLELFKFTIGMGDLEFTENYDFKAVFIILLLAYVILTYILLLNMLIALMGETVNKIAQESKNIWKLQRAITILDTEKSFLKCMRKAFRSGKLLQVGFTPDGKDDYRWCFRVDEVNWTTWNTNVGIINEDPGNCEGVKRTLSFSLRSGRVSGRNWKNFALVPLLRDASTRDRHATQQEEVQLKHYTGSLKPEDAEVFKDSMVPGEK
Assay: TRPV1 modulation in DRG neurones: CGRP release in absence and presence of capsaicin (Assay 2)
Type: cell-based
Set-up: The culture used for this experiment contained sensory neurones, Schwann cells and fibroblasts; endogenous in cells; host or cells: primary rat DRG sensory neurone culture (with Schwann cells and fibroblasts)
Conditions: 20 min; test compound alone 3 μM, rat DRG sensory neurones, 20 min; read-out: CGRP release (% of capsaicin (1 μM) response)
OBSERVABLE: Emax at 3 µM (%)
Answers are plain numbers, in %.

Could I get Emax at 3 µM for every one of these entries?
1. COc1cc(CCC(=O)C(C)C(=O)C2(C)CC2)ccc1O (centres unmarked)
2. COc1cc(CCC(=O)CC(=O)c2ccc(C#N)cc2)ccc1O

1: 35; 2: 53

###

System: histamine-induced contractions in guinea pig ileum
Assay: Inhibition of histamine-induced contractions in guinea pig ileum (Assay 3)
Details: Cavia porcellus; 30 μM; histamine 1.7 μM; read-out: Inhibition of histamine-induced contraction (%)
Procedure: Duncan Hartley derived male guinea pigs (325±25 g) were suppressed by CO2 overexposure, the abdominal cavity was exposed and ileal segments were removed. […] Mechanical activity was recorded by means of isotonic transducers. […] Histamine (1.7 μM; approximately EC60-70) or 5-hydroxytryptamine (5-HT, 2.6 μM; approximately EC60-70) was applied for 5 min and the amplitude of the contraction recorded. […]
Classification scheme (inhibition at 30 µM): lo: < 20%; mid: ≥ 20% and < 40%; hi: ≥ 40%

Could you tell me which band COc1cc(CCC(=O)CC(=O)c2ccc(-c3ccccc3)cc2)ccc1O belongs to? lo

###

Test system: IL-1α-induced PGE2 release
Test: IL-1α-induced PGE2 release in human diploid lung fibroblasts (WI-38) (Assay 5)
Format: cell-based
Settings: Homo sapiens; 30 μM; WI-38 cells, IL-1α 1 nM, overnight
Protocol: Human diploid lung fibroblasts (WI-38 cells) were incubated overnight in the presence of IL-1α (1 nM) and test compound (3 and 30 μM) in modified Eagle medium at pH 7.3 containing foetal bovine serum (10%) at 37° C. The supernatant was assayed by radioimmunoassay for released PGE2 and the inhibition of PGE2 by test compound calculated (Table 10). […] Living cells take up Alamar Blue and emit fluorescence when excited. […]
OBSERVABLE: inhibition at 30 µM (%)
Give bare numbers, in %.

The cases that follow already have their inhibition at 30 µM on record.
COc1cc(CCC(=O)CC(=O)c2ccc(C(C)(C)C)cc2)ccc1O
102
COc1cc(CCC(=O)CC(=O)c2ccc(C#N)cc2)ccc1O
102
COc1cc(/C=C/C(=O)CC(=O)C(C)(C)C)ccc1O
109
COc1cc(CCC(=O)C(Cc2ccccc2)C(=O)c2ccccc2)ccc1O (stereo not shown)
99
COc1cc(CCC(=O)C(C)C(=O)c2ccc(O)c(OC)c2)ccc1O (stereo not shown)
83

Could I get inhibition at 30 µM for every one of these entries?
1. COc1cc(CCC(=O)C(C)(C)C(=O)c2ccc(C)cc2)ccc1O
2. COc1cc(CCC(=O)C(C)C(=O)C(C)(C)C)ccc1O (stereo not shown)
3. CCC(C(=O)CCc1ccc(O)c(OC)c1)C(=O)c1ccccc1 (stereo not shown)
4. COc1cc(CCC(=O)CC(=O)c2ccccc2-c2ccccc2)ccc1O
5. COc1cc(CCC(=O)CC(=O)c2ccc(Cl)cc2)ccc1O

101
96
101
100
99
